Data origin: patent US20190106487A1

# ASSAYED_SYSTEM: T1, rhIL-1RAcP/Fc Chimera (human, UniProt Q9NPH3 21-359)
# T1 construct: also called P013_03; P013-03
# T1 sequence (looked up): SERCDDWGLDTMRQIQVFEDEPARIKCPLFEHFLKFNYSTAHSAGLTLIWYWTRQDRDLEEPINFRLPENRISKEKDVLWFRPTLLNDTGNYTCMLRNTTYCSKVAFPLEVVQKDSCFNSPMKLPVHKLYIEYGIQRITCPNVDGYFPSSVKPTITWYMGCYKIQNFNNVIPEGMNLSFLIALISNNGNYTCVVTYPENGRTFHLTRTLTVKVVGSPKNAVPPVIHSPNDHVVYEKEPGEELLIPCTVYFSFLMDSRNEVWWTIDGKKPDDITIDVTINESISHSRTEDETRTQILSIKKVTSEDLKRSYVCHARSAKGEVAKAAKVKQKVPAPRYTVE
# EXPERIMENT: ELISA, primary supernatant, coated hu-IL-1RAcP-Fc
VALUE_TYPE: hu-IL1RaP ELISA (OD)
Give bare numbers, in OD.

Please review the entries below; each comes with its answer.
BINDER: P013.S.02.B.H04 (antibody, V domains shown, rabbit monoclonal antibody; also called P013.A.00029.F11) VH: QSVEESGGRLVKPDETLTLTCTVSGIDLSSYAMGWVRQAPGKGLEYIGIISSSGRTYYANWAKGRFTISKASSTTVDLKITSPTTEDTATYFCARLITVDYYIYDYFNLWGQGTLVTVSS VL: AYDMTQTPASVEAAVGGTVTIKCQASQSISSYLSWYQQKPGQPPKLLIYGASTLASGVPSRFKGSGSGTEYTLTISGVESDDAATYYCQQGYSYNNVDNTFGGGTEVVVK
hu-IL1RaP ELISA (OD): 3.2
--
BINDER: P013.S.01.B.G06 (antibody, V domains shown, rabbit monoclonal antibody; also called P013.A.00085.H05) VH: QSLEESGGRLVTPGTPLTLTCTASGFTISSYYMSWVRQAPGKGLEWIGGIATDGNTYYANWAKGRFTVSRTSTTVDLKVTSPTAEDTATYFCARGGPAYSRGTHYAMDLWGPGTLVTVSS VL: AYDMTQTPASVEVAVGGTVTIKCQASQSIYIYLAWYQQKPGQRPKQLIYDASKLASGVPSRFSGSGSGTEFTLTISGVESADAATYYCQQGATIWNVDNPFGGGTEVVVK
hu-IL1RaP ELISA (OD): 3.8
--
BINDER: P013.S.01.B.C05 (antibody, V domains shown, rabbit monoclonal antibody; also called P013.A.00045.E06) VH: QSVEESGGRLVTPGTPLTLTCTVSGFSLSNYAMSWVRQAPGKGLEYIGIIDSGGSAYYATWARGRFTISRTSTTVDLKMTSPTTEDTATYFCARGGPAYSTNTHYTLDLWGPGTLVTVSS VL: AFEMTQTPSSVSEPVGGTVTIKCQASQSIYNYLSWYQQKPGQPPKLLIYDASELASGVPSRFKGSGSGTEFTLTISGVQSDDAATYYCQQGATTYNIENVFGGGTEVVVK
hu-IL1RaP ELISA (OD): 2.5
--
BINDER: P013.S.02.B.C05 (antibody, V domains shown, rabbit monoclonal antibody; also called P013.A.00085.F10) VH: QSLEESGGRLVTPGTPLTLSCTASGFSLSTYYMSWVRQAPGKGLEWIGYMHVGGFPVYASWAKGRFTISKTSTTVDLKITSPTIEDTATYFCARDFGPPNWTLDLWGQGTLVTVSS VL: DVVMTQTPASVEAAVGGTVTIKCQASQSISSYCSWYQQKPGQPPKLLIYRASTLESGVPSRFKGSGSGTEFTLTISDLESADAATYYCQSSYYDLLGNGFGGGTEVVVK
hu-IL1RaP ELISA (OD): 3.2

Consider the record given below.
Short answer for P013.S.02.B.F05 (antibody, V domains shown, rabbit monoclonal antibody; also called P013.A.00109.B04) VH: RSLEESGGDLVKPGTSLTLTCTASGFSFSGNYYMCWVRQAPGKGLEWIACIVVGSGGNTYYAGWAKRRFTISKTSSTTVTLQMTSLTAADTATYFCASGSYDDYGDYWYFTLWGQGTLVTVSS VL: AIDMTQTPSPASAGVGDTVTINCQASENIYNFLAWYQQKPGHSPKLLIYVASKLASGVPSRFKGSGSGTQFTLTISDVQSDDAATYYCQQTYRYNDGDTAFGGGTEVVVK : hu-IL1RaP ELISA (OD) was 0.1
